biological target: nuclear factor-kappa B (NF-kB)-inducing kinase (NIK) (Homo sapiens); construct: made in house; host or cells: baculovirus-infected insect cells; assay: NIK Enzyme Inhibition Assay (Transcreener ADP assay); assay type: biochemical; details: purified NIK 0.2-1 nM, 10 uM ATP, fluorescence polarization, Morrison's quadratic equation; read-out: inhibitory value (Ki) for NIK
Sequence (Q99558 whole entry): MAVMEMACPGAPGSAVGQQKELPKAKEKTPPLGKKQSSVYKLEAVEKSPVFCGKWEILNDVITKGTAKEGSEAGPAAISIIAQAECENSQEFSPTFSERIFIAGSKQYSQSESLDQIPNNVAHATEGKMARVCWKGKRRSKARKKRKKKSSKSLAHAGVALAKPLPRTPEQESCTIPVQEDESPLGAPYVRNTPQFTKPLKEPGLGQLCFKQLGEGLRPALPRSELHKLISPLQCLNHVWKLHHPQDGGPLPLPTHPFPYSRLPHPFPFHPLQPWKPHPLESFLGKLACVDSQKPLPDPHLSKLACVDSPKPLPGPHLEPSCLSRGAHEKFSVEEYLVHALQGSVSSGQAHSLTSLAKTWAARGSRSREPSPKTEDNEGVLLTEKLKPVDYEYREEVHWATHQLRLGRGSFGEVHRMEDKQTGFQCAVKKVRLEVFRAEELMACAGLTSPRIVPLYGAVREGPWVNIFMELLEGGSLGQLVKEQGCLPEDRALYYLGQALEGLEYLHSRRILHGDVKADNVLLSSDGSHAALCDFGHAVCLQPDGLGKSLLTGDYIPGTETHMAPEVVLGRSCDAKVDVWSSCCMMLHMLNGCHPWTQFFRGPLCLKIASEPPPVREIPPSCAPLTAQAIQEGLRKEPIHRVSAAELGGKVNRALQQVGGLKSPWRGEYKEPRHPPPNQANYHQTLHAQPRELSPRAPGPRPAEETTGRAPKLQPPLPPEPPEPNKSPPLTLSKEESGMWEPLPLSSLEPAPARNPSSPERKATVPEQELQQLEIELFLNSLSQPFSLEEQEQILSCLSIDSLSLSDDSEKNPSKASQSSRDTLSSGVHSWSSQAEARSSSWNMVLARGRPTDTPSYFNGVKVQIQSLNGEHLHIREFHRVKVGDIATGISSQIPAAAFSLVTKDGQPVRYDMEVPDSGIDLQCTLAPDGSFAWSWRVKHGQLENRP
measurement name: log10 of Ki (log10 of the value in nM)

>>> readout_value("Cc1cc(C(C)(O)C#Cc2ccc3c(C(C)(O)C4CC4)nn(-c4ccnc(N)n4)c3c2)no1 (stereo not drawn)")
-0.49
>>> readout_value("CC(C)(O)C#Cc1ccc2nc(C3CC3)n(-c3ccnc(N)n3)c2c1")
3.46
>>> readout_value("CC(O)(C#Cc1ccc2c(CN3CC(F)(F)C3)nn(-c3ccnc(N)n3)c2c1)c1ncccn1 (stereo not drawn)")
0.48
>>> readout_value("Cc1nn(-c2ccnc(N)n2)c2cc(C#CC(C)(O)c3nc[nH]n3)ccc12 (stereo not drawn)")
0.48
>>> readout_value("Cc1nc([C@](C)(O)C#Cc2ccc3c(C(=O)N4CC(O)C4)nn(-c4ccnc(N)n4)c3c2)no1")
0.30
>>> readout_value("Cc1nn(-c2ccnc(N)n2)c2cc(C#C[C@@](C)(O)c3nccs3)c(F)cc12")
-0.70
>>> readout_value("CC(O)(C#Cc1cc2c(cc1F)ncn2-c1ccnc(N)n1)c1nccs1 (stereo not drawn)")
-0.60
>>> readout_value("CN(C)C(=O)c1nn(-c2ccnc(N)n2)c2cc(C#CC3(O)CCn4ccnc43)ccc12 (stereo not drawn)")
0.30
